experiment: Solubility of the compound in water after 1 hr; type: physicochemical
reported-endpoint: solubility at 1 h (µg/mL)
API: value field is a number in µg/mL; no unit string.

Need solubility at 1 h, item Cc1nc(-c2ccc(F)cc2F)n(C)c1CC(=O)NCc1ccc(F)cc1Cl
920

----------
IC50 reference
biological target: P2X purinoceptor 7 (Rattus norvegicus); test: Antagonist activity at rat recombinant P2X7 receptor expressed in HEK293 cells by ethidium bromide […] assay
Sequence (Q64663 whole entry): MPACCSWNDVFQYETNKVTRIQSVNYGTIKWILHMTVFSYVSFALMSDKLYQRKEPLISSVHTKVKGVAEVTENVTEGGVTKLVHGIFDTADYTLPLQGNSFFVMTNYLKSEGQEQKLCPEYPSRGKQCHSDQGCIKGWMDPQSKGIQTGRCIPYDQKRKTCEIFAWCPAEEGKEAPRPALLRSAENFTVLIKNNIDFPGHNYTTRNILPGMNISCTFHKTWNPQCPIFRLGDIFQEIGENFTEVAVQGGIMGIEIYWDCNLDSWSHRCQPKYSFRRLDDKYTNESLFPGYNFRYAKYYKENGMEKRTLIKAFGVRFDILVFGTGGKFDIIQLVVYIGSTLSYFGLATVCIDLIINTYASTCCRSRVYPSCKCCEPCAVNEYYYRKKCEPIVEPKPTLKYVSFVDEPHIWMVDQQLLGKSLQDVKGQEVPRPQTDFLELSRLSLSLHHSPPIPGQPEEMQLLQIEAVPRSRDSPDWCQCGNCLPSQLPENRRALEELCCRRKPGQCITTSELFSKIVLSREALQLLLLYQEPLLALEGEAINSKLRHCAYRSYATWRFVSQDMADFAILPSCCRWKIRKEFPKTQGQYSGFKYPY
API: value field is a number in µM; no unit string.

Some entries whose results are on file:
Need IC50, item CCn1c(-c2ccc(F)cc2F)nc(C)c1CC(=O)NCc1ccc(F)cc1Cl
0.158

Need IC50, item CCn1c(-c2ccccc2)nc(C)c1CC(=O)NCc1ccc(F)cc1Cl
0.158

Continuing:
Need IC50, item Cc1c(Cl)cccc1CNC(=O)Cc1cnc(-c2ccc(F)cc2F)n1C
0.631

Need IC50, item Cc1nc(-c2ccc(F)cc2F)n(C)c1CC(=O)NCc1cccc(Cl)c1C
0.631

Need IC50, item CCn1c(-c2ccccc2)nc(C)c1CC(=O)NCc1cccc(Cl)c1C
0.631

Need IC50, item Cc1nc(-c2ccccc2)n(C)c1CC(=O)NCc1cccc(Cl)c1C
1.58

Need IC50, item Cc1cccc(Cl)c1CNC(=O)Cc1c(C)nc(-c2ccccc2)n1C
3.16

Need IC50, item CCn1c(-c2ccccc2)nc(C)c1CC(=O)NCc1c(C)cccc1Cl
0.501

----------
molecular target: UniProt:P05177
Sequence (P05177 whole entry): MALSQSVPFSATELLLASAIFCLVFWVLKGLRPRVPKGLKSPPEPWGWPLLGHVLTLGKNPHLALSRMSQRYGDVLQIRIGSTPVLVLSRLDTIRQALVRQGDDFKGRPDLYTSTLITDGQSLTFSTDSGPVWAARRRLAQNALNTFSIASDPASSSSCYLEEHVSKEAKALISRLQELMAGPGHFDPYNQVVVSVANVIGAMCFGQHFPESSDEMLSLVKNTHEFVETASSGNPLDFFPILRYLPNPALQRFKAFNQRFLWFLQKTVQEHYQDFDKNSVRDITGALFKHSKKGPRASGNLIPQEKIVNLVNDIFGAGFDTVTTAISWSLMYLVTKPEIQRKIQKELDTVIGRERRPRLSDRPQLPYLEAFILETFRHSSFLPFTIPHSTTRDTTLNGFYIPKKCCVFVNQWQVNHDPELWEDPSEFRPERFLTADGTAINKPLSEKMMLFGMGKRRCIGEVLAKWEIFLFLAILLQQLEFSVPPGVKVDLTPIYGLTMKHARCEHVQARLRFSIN
reported-endpoint: IC50

What measured IC50 is associated with Cc1nc(-c2ccc(F)cc2F)n(C)c1CC(=O)NCc1ccc(F)cc1Cl on UniProt:P05177?
> 10 µM

----------
experiment: Solubility of compound in simulated gastric fluid at pH 1.2 after 1 hr; assay type: physicochemical
reported-endpoint: solubility at 1 h (µg/mL)
API: value field is a number in µg/mL; no unit string.

Need solubility at 1 h, item Cc1nn(-c2ccccc2)c(C)c1CC(=O)NCc1ccc(F)cc1Cl
410

----------
biological target: Cytochrome P450 3A4 (Homo sapiens, UniProt P08684)
Sequence (P08684 whole entry): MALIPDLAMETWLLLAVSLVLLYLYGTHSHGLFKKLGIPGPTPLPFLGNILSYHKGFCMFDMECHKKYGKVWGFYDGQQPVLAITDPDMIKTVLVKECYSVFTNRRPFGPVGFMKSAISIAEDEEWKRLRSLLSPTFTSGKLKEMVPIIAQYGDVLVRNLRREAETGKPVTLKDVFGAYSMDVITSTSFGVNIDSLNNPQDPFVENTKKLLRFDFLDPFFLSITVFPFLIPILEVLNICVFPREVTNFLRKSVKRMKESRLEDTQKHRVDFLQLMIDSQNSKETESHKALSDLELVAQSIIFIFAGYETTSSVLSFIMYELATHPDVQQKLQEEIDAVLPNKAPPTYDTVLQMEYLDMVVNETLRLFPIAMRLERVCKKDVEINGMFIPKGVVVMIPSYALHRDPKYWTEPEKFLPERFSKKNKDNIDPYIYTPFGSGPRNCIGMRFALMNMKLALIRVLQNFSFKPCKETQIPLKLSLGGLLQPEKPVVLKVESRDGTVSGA
reported-endpoint: pIC50
The quantity pIC50 is defined as the negative base-10 logarithm of the molar concentration.

What measured pIC50 is associated with Cc1nc(-c2ccc(F)cc2F)n(C)c1CC(=O)NCc1ccc(F)cc1Cl on Cytochrome P450 3A4 (Homo sapiens, UniProt P08684)?
5.26

----------
test: Dissociation constant, pKa of the compound; type: physicochemical
reported-endpoint: pKa
A bare number is all that is needed in reply.

Need pKa, item Cc1nc(-c2ccc(F)cc2F)n(C)c1CC(=O)NCc1ccc(F)cc1Cl
6.47

----------
assay: Cmax in rat at 3 mg/kg, po; assay type: ADME, organism-based; set-up: dose 3 mg/kg, route oral; conditions: in vivo
reported-endpoint: Cmax
# answer = value followed by unit

Need Cmax, item Cc1nc(-c2ccc(F)cc2F)n(C)c1CC(=O)NCc1ccc(F)cc1Cl
430 nM

----------
assay: Solubility of compound in fed state simulated intestinal fluid at pH 5 after 1 hr; format: physicochemical
reported-endpoint: solubility at 1 h

Need solubility at 1 h, item Cc1nn(-c2ccccc2)c(C)c1CC(=O)NCc1ccc(F)cc1Cl
100 µg/mL

Proceed to the following item.
Need solubility at 1 h, item Cc1nc(-c2ccc(F)cc2F)n(C)c1CC(=O)NCc1ccc(F)cc1Cl
900 µg/mL
